test: Systemic clearance in Sprague-Dawley rat plasma at 2 mg/kg, iv; assay type: ADME, organism-based
OBSERVATION TYPE: clearance (mL/min/kg)
Write the number in mL/min/kg without appending the unit.

Query :: Item `CC(C)(O)c1ccc(NC2CCN(c3nnc(Cc4ccccc4)c4ccccc34)CC2)nc1` has what recorded clearance?
Result :: 42.1

###

assay: AUC (0 to infinity) in Sprague-Dawley rat plasma at 10 mg/kg, po; format: ADME, organism-based; design: dose 10 mg/kg, route oral, time infinity
OBSERVATION TYPE: AUC(0-inf) (µM·h)
Give just the numeric value; µM·h need not be written.

Query :: Endpoint output: AUC(0-inf) of `CC(C)(O)c1ccc(NC2CCN(c3nnc(Cc4ccccc4)c4ccccc34)CC2)nc1` . Value?
Result :: 3.28

###

assay: AUC (0 to infinity) in Sprague-Dawley rat plasma at 2 mg/kg, iv; type: ADME, organism-based; set-up: dose 2 mg/kg, time infinity, route intravenous
OBSERVATION TYPE: AUC(0-inf) (µM·h)
Respond numerically; units are µM·h and should not be typed.

Query :: I am curious: what AUC(0-inf) value has been reported for `CC(C)(O)c1ccc(NC2CCN(c3nnc(Cc4ccccc4)c4ccccc34)CC2)nc1` ?
Result :: 1.64

###

assay: Inhibition of hedgehog signaling (unknown origin) expressed in mouse NIH/3T3 cells by Gli-dual-luciferase reporter assay; format: cell-based; conditions: NIH3T3
OBSERVATION TYPE: IC50 (nM)
Note: unit nM is implicit; provide only the numeric part.

CC(C)(O)c1ccc(NC2CCN(c3nnc(Cc4ccccc4)c4ccccc34)C2)nc1 (racemic); 3.28
CC(C)(O)c1ccc(N2CCN(c3nnc(Cc4ccccc4)c4ccccc34)CC2)nc1; 7.1

Query :: Endpoint output: IC50 of CCOC(=O)c1ccc(N2CCC(Nc3nnc(Cc4ccccc4)c4ccccc34)C2)nc1 (racemic) . Value?
Result :: 45.7

###

Below, each of the compounds is paired with its reported IC50 value.
experiment: Inhibition of hedgehog signaling (unknown origin) expressed in mouse NIH/3T3 cells by Gli-dual-luciferase reporter assay; format: cell-based; conditions: NIH3T3
# output: bare number, implied unit nM

Query :: Given the entry CCC(O)(CC)c1ccc(NC2CCN(c3nnc(Cc4ccccc4)c4ccccc34)C2)nc1 (racemic) , report its measured IC50.
Result :: 2.97

Query :: Also CCC(O)(CC)c1ccc(N2CCC(Nc3nnc(Cc4ccccc4)c4ccccc34)C2)nc1 (racemic) ?
Result :: 3.91

Query :: Next compound: `CC(C)(O)c1ccc(NC2CCN(c3nnc(Cc4ccccc4)c4ccccc34)CC2)nc1`
Result :: 0.58

###

experiment: Inhibition of hedgehog signaling (unknown origin) expressed in mouse NIH/3T3 cells by Gli-dual-luciferase reporter assay; format: cell-based; conditions: NIH3T3
OBSERVATION TYPE: IC50

Sample answers from the record:
CCC(O)(CC)c1ccc(NC2CCN(c3nnc(Cc4ccccc4)c4ccccc34)CC2)nc1; 10.3 nM
CCOC(=O)c1ccc(NC2CCN(c3nnc(Cc4ccccc4)c4ccccc34)C2)nc1 (racemic); 8.76 nM
CC(C)(O)c1ccc(N2CCC(Nc3nnc(Cc4ccccc4)c4ccccc34)C2)nc1 (racemic); 9.66 nM
CN(c1ccc(C(C)(C)O)cn1)C1CCN(c2nnc(Cc3ccccc3)c3ccccc23)CC1; 6.66 nM

Query :: Requested read-out: IC50. Entry: `CC(C)(O)c1ccc(OC2CN(c3nnc(Cc4ccccc4)c4ccccc34)C2)nc1`
Result :: 648 nM

Query :: Same lookup for `CC(=O)c1ccc(N(C)C2CCN(c3nnc(Cc4ccccc4)c4ccccc34)CC2)nc1` , please.
Result :: > 1000 nM

###

assay: Oral bioavailability in Sprague-Dawley rat plasma at 10 mg/kg; assay type: ADME, organism-based
OBSERVATION TYPE: bioavailability (%)
Write the value in % as a bare number.

Query :: // returns reported bioavailability for input `CC(C)(O)c1ccc(NC2CCN(c3nnc(Cc4ccccc4)c4ccccc34)CC2)nc1`
Result :: 40.1

###

assay: Half life in Sprague-Dawley rat plasma at 2 mg/kg, iv; format: ADME, organism-based
OBSERVATION TYPE: half-life (h)
Please reply with the bare figure in h and do not write the unit itself.

Query :: For the compound shown here, `CC(C)(O)c1ccc(NC2CCN(c3nnc(Cc4ccccc4)c4ccccc34)CC2)nc1` , give the reported half-life.
Result :: 1.03

###

test: Cmax in Sprague-Dawley rat plasma at 10 mg/kg, po; type: ADME, organism-based; parameters: dose 10 mg/kg, route oral
OBSERVATION TYPE: Cmax (nM)
Output spec: scalar in nM, unitless text.

Query :: # get_value(readout='Cmax', item= `CC(C)(O)c1ccc(NC2CCN(c3nnc(Cc4ccccc4)c4ccccc34)CC2)nc1` )
Result :: 950

###

# IC50 annotations
assay: Inhibition of hedgehog signaling (unknown origin) expressed in mouse NIH/3T3 cells by Gli-dual-luciferase reporter assay; format: cell-based; conditions: NIH3T3

Illustrative cases are given below, each with its answer.
CC(=O)c1ccc(NC2CCN(c3nnc(Cc4ccccc4)c4ccccc34)CC2)nc1; 2.45 nM
CS(=O)(=O)c1ccc(C(=O)Nc2ccc(Cl)c(-c3ccccn3)c2)c(Cl)c1; 2.3 nM

Query :: Could you tell me which IC50 is on file for CCOC(=O)c1ccc(NC2CCCN(c3nnc(Cc4ccccc4)c4ccccc34)C2)nc1 (racemic) ?
Result :: > 1000 nM
